target.of.assay: α-synuclein fibrils (Homo sapiens, UniProt P37840)
protocol.details: Fluorescence titration with α-synuclein fibrils
Assay type: binding
condition.label: monomeric BTA analogue; fluorescence titration; read-out: Kd for α-synuclein (binding affinity too low to measure)
pKd: −log10 of the molar value.
recorded.endpoint: pKd

Enquiry: Which value of pKd has been reported for COCCOCCOCCOc1ccc2nc(-c3ccc(N(C)C)cc3)sc2c1 [monomeric BTA analogue] in the records?
Return: < 6.00

* * *

target.of.assay: α-synuclein fibrils (Homo sapiens, UniProt P37840)
protocol.details: Fluorescence titration with α-synuclein fibrils
Format: binding
condition.label: monodisperse BTA dimers; 1 μM α-synuclein; PBS 1× pH 7.4, 298 K; errors at 95% confidence limit; read-out: Dissociation constant (Kd) for binding to α-synuclein fibrils
recorded.endpoint: pKd
Value format note: pKd is -log10 of concentration (mol/L); just state the number.

>>> endpoint_result("CN(C)c1ccc(-c2nc3ccc(OCCOCCOCCOCCOCCOCCOCCOCCOCCOCCOCCOCCOCCOCCOCCOc4ccc5nc(-c6ccc(N(C)C)cc6)sc5c4)cc3s2)cc1 [Compound 16]")
7.46
>>> endpoint_result("CN(C)c1ccc(-c2nc3ccc(OCCOCCOCCOCCOCCOCCOCCOCCOCCOc4ccc5nc(-c6ccc(N(C)C)cc6)sc5c4)cc3s2)cc1 [Compound 15]")
8.57

Enquiry: Which value of pKd has been reported for CN(C)c1ccc(-c2nc3ccc(OCCOCCOCCOCCOCCOCCOc4ccc5nc(-c6ccc(N(C)C)cc6)sc5c4)cc3s2)cc1 [Compound 14] in the records?
Return: 6.72

Enquiry: Proceed to CN(C)c1ccc(-c2nc3ccc(OCCOCCOCCOCCOCCOCCOCCOCCOCCOCCOCCOCCOCCOCCOCCOCCOCCOCCOCCOCCOCCOc4ccc5nc(-c6ccc(N(C)C)cc6)sc5c4)cc3s2)cc1 [Compound 17]
Return: 6.68
